Biological target: PDE4B2 (Homo sapiens)
Details: read-out: PDE4B2 IC50; enzyme assay
pIC50: −log10 of the molar value.
experimentalEndpoint: pIC50

- compound: "[O-][S+]1CCc2nc(N3CCc4cc(N5CCCC5)ccc4C3)nc(N3CCC[C@H]3CO)c21 (stereo partly shown)"
  experimentalEndpoint: "pIC50"
  numericResult: 9.41
- compound: "CN1CC2CN(c3ccc4c(c3)CCN(c3nc5c(c(NC6(CO)CCC6)n3)[S+]([O-])CC5)C4)CC2C1 (stereo not shown)"
  experimentalEndpoint: "pIC50"
  numericResult: 9.30
- compound: "CN1C[C@@H]2CCN(c3ccc4c(c3)CCN(c3nc5c(c(NC6(CO)CCC6)n3)[S+]([O-])CC5)C4)[C@@H]2C1 (stereo partly shown)"
  experimentalEndpoint: "pIC50"
  numericResult: 9.23
- compound: "[O-][S+]1CCc2nc(N3CCc4cc(Cl)ccc4[C@H]3C3CC3)nc(NC3(CO)CCC3)c21 (stereo partly shown)"
  experimentalEndpoint: "pIC50"
  numericResult: 9.01
- compound: "C[C@@H]1Cc2cc(Cl)ccc2CN1c1nc2c(c(NC3(CO)CCC3)n1)[S+]([O-])CC2 (stereo partly shown)"
  experimentalEndpoint: "pIC50"
  numericResult: 7.87

I = C[C@H]1CCN1c1ccc2c(c1)CCN(c1nc3c(c(NC4(CO)CCC4)n1)[S+]([O-])CC3)C2 (stereo partly shown)
II = C[C@H]1c2ccc(N3CCCC3)cc2CCN1c1nc2c(c(NC3(CO)CCC3)n1)[S+]([O-])CC2 (stereo partly shown)
Form: Entry with minimum pIC50 (choose one): I / II Lab log: write the label of the selected item as the result.
I

====

Target: Flpin-293-PDE4B2 cells (Homo sapiens)
Sequence (Q07343 1-564 isoform Q07343-2): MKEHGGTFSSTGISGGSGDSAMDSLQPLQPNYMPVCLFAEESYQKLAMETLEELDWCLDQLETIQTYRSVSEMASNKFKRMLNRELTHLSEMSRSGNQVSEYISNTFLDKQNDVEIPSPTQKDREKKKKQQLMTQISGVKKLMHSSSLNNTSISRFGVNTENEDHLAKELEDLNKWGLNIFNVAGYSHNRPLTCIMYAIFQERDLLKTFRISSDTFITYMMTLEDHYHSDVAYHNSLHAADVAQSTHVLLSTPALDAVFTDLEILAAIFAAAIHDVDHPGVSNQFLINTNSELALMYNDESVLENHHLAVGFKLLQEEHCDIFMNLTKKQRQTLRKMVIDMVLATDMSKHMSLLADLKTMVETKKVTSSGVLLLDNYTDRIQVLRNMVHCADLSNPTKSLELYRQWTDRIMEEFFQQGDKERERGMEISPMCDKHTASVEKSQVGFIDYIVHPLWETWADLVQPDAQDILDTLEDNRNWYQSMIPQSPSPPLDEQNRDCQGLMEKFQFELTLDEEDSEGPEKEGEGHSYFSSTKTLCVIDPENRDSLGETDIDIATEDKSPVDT
Assay: cell-based
Details: read-out: Cell Inhibition % @100 nM, 100 nM, Flpin-293-PDE4B2 cells
experimentalEndpoint: inhibition at 0.1 µM (%)

- molecule: "NC(=O)Nc1ccc(Nc2nc(N3CCc4cc(Cl)ccc4C3)nc3c2[S+]([O-])CC3)cc1 (stereo not shown)"
  experimentalEndpoint: "inhibition at 0.1 µM"
  measureUnit: "%"
  numericResult: 83.8
- molecule: "N#CC1CCN(c2ccc3c(c2)CCN(c2nc4c(c(NC5(CO)CCC5)n2)[S+]([O-])CC4)C3)C1 (stereo not shown)"
  experimentalEndpoint: "inhibition at 0.1 µM"
  measureUnit: "%"
  numericResult: 99.6
- molecule: "[O-][S+]1CCc2nc(N3CCc4cc(Cl)ccc4[C@H]3C3CC3)nc(NC3(CO)CCC3)c21 (stereo partly shown)"
  experimentalEndpoint: "inhibition at 0.1 µM"
  measureUnit: "%"
  numericResult: 90.6
- molecule: "Cn1ccc(-c2ccc3c(c2)CCN(c2nc4c(c(NC5(CO)CCC5)n2)[S+]([O-])CC4)C3)n1 (stereo not shown)"
  experimentalEndpoint: "inhibition at 0.1 µM"
  measureUnit: "%"
  numericResult: 101
- molecule: "[O-][S+]1CCc2nc(N3CCc4cc(N5CCC(CO)C5)ccc4C3)nc(NC3(CO)CCC3)c21 (stereo not shown)"
  experimentalEndpoint: "inhibition at 0.1 µM"
  measureUnit: "%"
  numericResult: 94.3
- molecule: "C[C@H]1c2ccc(Br)cc2CCN1c1nc2c(c(NC3(CO)CCC3)n1)[S+]([O-])CC2 (stereo partly shown)"
  experimentalEndpoint: "inhibition at 0.1 µM"
  measureUnit: "%"
  numericResult: 86.8
- molecule: "[O-][S+]1CCc2nc(N3CCc4cc(N5C[C@H]6C[C@@H]5CO6)ccc4C3)nc(NC3(CO)CCC3)c21 (stereo partly shown)"
  experimentalEndpoint: "inhibition at 0.1 µM"
  measureUnit: "%"
  numericResult: 99.9
